PROTOCOL DESCRIPTION: Cytotoxicity, MTT assay
Assay type: cell-based, human
ASSAY CONTEXT: human, HEK 293 cells; HEK 293; 60 μg/ml; 24 h; read-out: Viability
Where a SMILES comes first, the peptide text is derived from it. [ ]: non-standard residue; d: D form. The star is where a group is joined. Dab = NCC[C@H](N)C(=O)O; Cbz = O=C(OCc1ccccc1)*
QUANTITY KIND: viability at 24 h, 60 µg/mL (%)
Provide only the numeric value, understood in %.

The reported value for CC[C@H](C)[C@H](NC(=O)[C@H](CCN)NC(=O)OCc1ccccc1)C(=O)N[C@@H](CCN)C(=O)N[C@H](Cc1ccccc1)C(=O)N[C@@H](CC(C)C)C(=O)N[C@@H](CCN)C(=O)N[C@@H](C(=O)N[C@@H](CC(C)C)C(=O)N[C@@H](CO)C(N)=O)C(C)C [Analogue 15] (Cbz-[Dab]I[Dab][dF]L[Dab][dV]LS-NH2) in terms of viability at 24 h, 60 µg/mL is 82

###

PROTOCOL DESCRIPTION: Cytotoxicity, MTT assay
Type: cell-based, human
ASSAY CONTEXT: human, HEK 293 cells
Where a SMILES comes first, the peptide text is derived from it. [ ]: non-standard residue; d: D form. The star is where a group is joined. Dab = NCC[C@H](N)C(=O)O; Hexanoyl = CCCCCC(=O)*
QUANTITY KIND: viability at 24 h, 45 µg/mL (%)
# output: bare number, implied unit %

CCCCCC(=O)N[C@@H](CCN)C(=O)N[C@H](C(=O)N[C@@H](CCN)C(=O)N[C@H](Cc1ccccc1)C(=O)N[C@@H](CC(C)C)C(=O)N[C@@H](CCN)C(=O)N[C@@H](C(=O)N[C@@H](CC(C)C)C(=O)N[C@@H](CO)C(N)=O)C(C)C)[C@@H](C)CC [Analogue 1] (Hexanoyl-[Dab]I[Dab][dF]L[Dab][dV]LS-NH2) has a reported viability at 24 h, 45 µg/mL of 78.4

###

Tested on: Acinetobacter baumannii ATCC 19606
Type: cell-based
ASSAY CONTEXT: ATCC 19606
Where a SMILES comes first, the peptide text is derived from it. [ ]: non-standard residue; d: D form. The star is where a group is joined. ξ: configuration not given here. Thr(3ξ) = CC(O)[C@H](N)C(=O)O; Decanoyl = CCCCCCCCCC(=O)*; Heptanoyl = CCCCCCC(=O)*; Octanoyl = CCCCCCCC(=O)*; Dab = NCC[C@H](N)C(=O)O; ξDab = NCCC(N)C(=O)O
MIC listing for selected compounds.

CCCCCCC(=O)N[C@@H](CCN)C(=O)N[C@@H](Cc1ccccc1)C(=O)N[C@@H](CCN)C(=O)N[C@H](Cc1ccccc1)C(=O)N[C@@H](CC(C)C)C(=O)N[C@@H](CCN)C(=O)N[C@H](CC(C)C)C(=O)N[C@@H](Cc1ccccc1)C(=O)N[C@@H](CO)C(N)=O [Analogue 7] (Heptanoyl-[Dab]F[Dab][dF]L[Dab][dL]FS-NH2)    2 to 4 µg/mL

CCCCCCCCCC(=O)N[C@@H](CCN)C(=O)N[C@H](C(=O)N[C@H](C(=O)N[C@H](CC(C)C)C(=O)N[C@@H](CC(C)C)C(=O)N[C@@H](CCN)C(=O)N[C@@H](C(=O)N[C@@H](CC(C)C)C(=O)N[C@@H](CO)C(N)=O)C(C)C)C(C)O)[C@@H](C)CC (stereo partly drawn) [Analogue 13] (Decanoyl-[Dab]I[Thr(3ξ)][dL]L[Dab][dV]LS-NH2) yielded MIC of >32 µg/mL

MIC reading for CCCCCCCC(=O)N[C@@H](CCN)C(=O)NC(CCN)C(=O)N[C@@H](CCN)C(=O)N[C@H](Cc1ccccc1)C(=O)N[C@@H](CC(C)C)C(=O)N[C@@H](CCN)C(=O)N[C@@H](C(=O)N[C@@H](CC(C)C)C(=O)N[C@@H](CCN)C(N)=O)C(C)C (stereo partly drawn) [Analogue 10] (Octanoyl-[Dab][ξDab][Dab][dF]L[Dab][dV]L[Dab]-NH2) : >32 µg/mL

###

Tested on: Escherichia coli ATCC 25922
Assay type: cell-based
ASSAY CONTEXT: ATCC 25922
Where a SMILES comes first, the peptide text is derived from it. [ ]: non-standard residue; d: D form. The star is where a group is joined. Cha = N[C@@H](CC1CCCCC1)C(=O)O; Decanoyl = CCCCCCCCCC(=O)*; Heptanoyl = CCCCCCC(=O)*; Octanoyl = CCCCCCCC(=O)*; Dab = NCC[C@H](N)C(=O)O
Reported Minimum inhibitory concentration values for the following molecules.

Reference set, count: 3
CC[C@H](C)[C@H](NC(=O)[C@H](CCN)NC(=O)[C@@H](N)CC1CCCCC1)C(=O)N[C@@H](CCN)C(=O)N[C@H](Cc1ccccc1)C(=O)N[C@@H](CC(C)C)C(=O)N[C@@H](CCN)C(=O)N[C@@H](C(=O)N[C@@H](CC(C)C)C(=O)N[C@@H](CO)C(N)=O)C(C)C [Analogue 16] (H-[Cha][Dab]I[Dab][dF]L[Dab][dV]LS-NH2)    4 to 8 µg/mL
CCCCCCCCCC(=O)N[C@@H](CCN)C(=O)N[C@H](C(=O)N[C@@H](CCN)C(=O)N[C@H](Cc1ccccc1)C(=O)N[C@@H](CC(C)C)C(=O)N[C@@H](CCN)C(=O)N[C@@H](C(=O)N[C@@H](CC(C)C)C(=O)N[C@@H](CO)C(N)=O)C(C)C)[C@@H](C)CC [Analogue 12] (Decanoyl-[Dab]I[Dab][dF]L[Dab][dV]LS-NH2)    2 to 8 µg/mL
CCCCCCCC(=O)N[C@@H](CCN)C(=O)N[C@H](C(=O)N[C@@H](CCN)C(=O)N[C@H](Cc1ccccc1)C(=O)N[C@@H](CC(C)C)C(=O)N[C@@H](CCN)C(=O)N[C@@H](C(=O)N[C@@H](CC(C)C)C(=O)N[C@@H](CO)C(N)=O)C(C)C)[C@@H](C)CC [Analogue 8, C8-Pat] (Octanoyl-[Dab]I[Dab][dF]L[Dab][dV]LS-NH2)    2 to 4 µg/mL

Sample CCCCCCC(=O)N[C@@H](CCN)C(=O)N[C@@H](Cc1ccccc1)C(=O)N[C@@H](CCN)C(=O)N[C@H](Cc1ccccc1)C(=O)N[C@@H](CC(C)C)C(=O)N[C@@H](CCN)C(=O)N[C@H](CC(C)C)C(=O)N[C@@H](CC(C)C)C(=O)N[C@@H](CO)C(N)=O [Analogue 6] (Heptanoyl-[Dab]F[Dab][dF]L[Dab][dL]LS-NH2) ; Minimum inhibitory concentration observed: 1 to 4 µg/mL

###

Test system: rabbit red blood cells
PROTOCOL DESCRIPTION: Hemolytic activity
Format: cell-based
ASSAY CONTEXT: 32 μg/mL; relative to Triton X-100
Where a SMILES comes first, the peptide text is derived from it. [ ]: non-standard residue; d: D form. The star is where a group is joined. ξ: configuration not given here. Cha = N[C@@H](CC1CCCCC1)C(=O)O; Heptanoyl = CCCCCCC(=O)*; Octanoyl = CCCCCCCC(=O)*; Dab = NCC[C@H](N)C(=O)O; ξDab = NCCC(N)C(=O)O
QUANTITY KIND: Hemolysis (%)
Express the result in % but write the number alone.

Some solved cases for reference:
CCCCCCCC(=O)N[C@@H](CCN)C(=O)NC(CCN)C(=O)N[C@@H](CCN)C(=O)N[C@H](Cc1ccccc1)C(=O)N[C@@H](CC(C)C)C(=O)N[C@@H](CCN)C(=O)N[C@@H](C(=O)N[C@@H](CC(C)C)C(=O)N[C@@H](CCN)C(N)=O)C(C)C (stereo partly drawn) [Analogue 10] (Octanoyl-[Dab][ξDab][Dab][dF]L[Dab][dV]L[Dab]-NH2)    0.38
CC(C)C[C@H](NC(=O)[C@@H](Cc1ccccc1)NC(=O)[C@H](CCN)NC(=O)[C@H](Cc1ccccc1)NC(=O)[C@H](CCN)NC(=O)[C@@H](N)CC1CCCCC1)C(=O)N[C@@H](CCN)C(=O)N[C@H](CC(C)C)C(=O)N[C@@H](Cc1ccccc1)C(=O)N[C@@H](CO)C(N)=O [Analogue 17] (H-[Cha][Dab]F[Dab][dF]L[Dab][dL]FS-NH2)    2.46

Let us examine a further case.
Lookup result for CCCCCCC(=O)N[C@@H](CCN)C(=O)N[C@@H](Cc1ccccc1)C(=O)N[C@@H](CCN)C(=O)N[C@H](Cc1ccccc1)C(=O)N[C@@H](CC(C)C)C(=O)N[C@@H](CCN)C(=O)N[C@@H](C(=O)N[C@@H](CC(C)C)C(=O)N[C@@H](CO)C(N)=O)C(C)C [Analogue 4] (Heptanoyl-[Dab]F[Dab][dF]L[Dab][dV]LS-NH2) ; measured Hemolysis: 0.49

Value source: patent US11364275B2
